assay: chemical genetic growth profiling, strain panel (AID 1159580);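 also: tested at 20 µM; growth read once vehicle control cultures reached saturation at 30 °C; 1 = growth at the plate median or of vehicle wells; lower values mean less growth of the strain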; settings: S. cerevisiae deletion strains, growth OD, locus YKR091W, strain srl3, stronger effect = lower value
Out of some 5,500 compounds screened, about 2,000 (36%) were called active. Another 18% or so got no clear call; they are omitted. This is one part of the list.
Value Type: normalized growth
Answer with a bare number; do not write a unit.

Below: 5 compounds and their reported normalized growth.
| Compound | normalized growth |
| --- | --- |
| C1CCN2C[C@@H]3C[C@H](CN4CCCC[C@@H]34)[C@H]2C1 | 1 |
| CC1(C)C(=O)C=C[C@@]2(C)C1=C(O)C(=O)[C@]1(C)C2CC[C@@]2(C)[C@H](c3ccoc3)C[C@H]3O[C@]321 (some centres not stated) | 0.969 |
| O=C(NC(=O)c1c(F)cccc1F)Nc1ccc(Cl)cc1 | 1.01 |
| O=C(O)CF | 1.02 |
| C=C(C)C1CC=C(CO)CC1 (configuration not stated) | 0.953 |

Lookup result for CNC[C@@H](O)c1ccc(O)c(O)c1 ; measured normalized growth: 1.01

Lookup result for O=C1O[C@H](C(O)CO)C(O)=C1O (some centres not stated) ; measured normalized growth: 0.986

Lookup result for CC(C)(C)NCC(O)c1ccccc1Cl (configuration not stated) ; measured normalized growth: 0.997

Lookup result for Cc1c(O)c(O)cc2c1CC=C1[C@@]2(C)CC[C@@]2(C)C3C[C@](C)(C(=O)O)CC[C@]3(C)CC[C@]12C (some centres not stated) ; measured normalized growth: 0.8

Lookup result for O=C1C=CC2=C3c4cc(O)c(O)cc4CC3(O)COC2=C1O (configuration not stated) ; measured normalized growth: 1.04

Lookup result for COc1c2c(cc3c1OCO3)CCN(C)C2 ; measured normalized growth: 0.998

Lookup result for CN[C@H](CC(=O)O)C(=O)O ; measured normalized growth: 1.02

Lookup result for C1CNCCN1 ; measured normalized growth: 1.01

Lookup result for CCCCC1=NC2(CCCC2)C(=O)N1Cc1ccc(-c2ccccc2-c2nn[nH]n2)cc1 ; measured normalized growth: 1.02

Lookup result for CN1C(CC(=O)c2ccccc2)CCCC1CC(O)c1ccccc1 (configuration not stated) ; measured normalized growth: 0.975

Lookup result for C[C@H]1[C@H]2CCC3C4CC=C5C[C@@H](N(C)C)CC[C@]5(C)C4CC[C@@]32CN1C (some centres not stated) ; measured normalized growth: 0.995

Lookup result for O=C1CCCC2C3CC(CN12)[C@@H]1CCCCN1C3 (some centres not stated) ; measured normalized growth: 1

Lookup result for O=C1C=CC2=C3c4cc(O)c(O)cc4C[C@@]3(O)COC2=C1 ; measured normalized growth: 0.97

Lookup result for Oc1ccc(Cl)c2cccnc12 ; measured normalized growth: 0.135
